Provide the recorded ratio to parent for the entries that follow.
B1: V5-KSR [Drosophila] / Flag-CNK^2–549 [Drosophila] (parent)
chain 1: MSSNNNAPASAPDTGSTNANDPISGSLSVDSNLVIIQDMIDLSANHLEGLRTQCAISSTLTQQEIRCLESKLVRYFSELLLAKMRLNERIPANGLVPHTTGNELRQWLRVVGLSQGTLTACLARLTTLEQSLRLSDEEIRQLLADSPSQREEEELRRLTRAMQNLRKCMESLESGTAASNNDPEQWHWDSWDRPTHIHRGSVGNIGLGNNSTASPRTHHRQHGVKGKNSALANSTNFKSGRQSPSATEELNSTQGSQLTLTLTPSPPNSPFTPSSGLSSSLNGTPQRSRGTPPPARKHQTLLSQSHVQVDGEQLARNRLPTDPSPDSHSSTSSDIFVDPNTNASSGGSSSNVLMVPCSPGVGHVGMGHAIKHRFTKALGFMATCTLCQKQVFHRWMKCTDCKYICHKSCAPHVPPSCGLPREYVDEFRHIKEQGGYASLPHVHGAAKGSPLVKKSTLGKPLHQQHGDSSSPSSSCTSSTPSSPALFQQRERELDQAGSSSSANLLPTPSLGKHQPSQFNFPNVTVTSSGGSGGVSLISNEPVPEQFPTAPATANGGLDSLVSSSNGHMSSLIGSQTSNASTAATLTGSLVNSTTTTSTCSFFPRKLSTAGVDKRTPFTSEYTDTHKSNDSDKTVSLSGSASTDSDRTPVRVDSTEDGDSGQWRQNSISLKEWDIPYGDLLLLERIGQGRFGTVHRALWHGDVAVKLLNEDYLQDEHMLETFRSEVANFKNTRHENLVLFMGACMNPPYLAIVTSLCKGNTLYTYIHQRREKFAMNRTLLIAQQIAQGMGYLHAREIIHKDLRTKNIFIENGKVIITDFGLFSSTKLLYCDMGLGVPHNWLCYLAPELIRALQPEKPRGECLEFTPYSDVYSFGTVWYELICGEFTFKDQPAESIIWQVGRGMKQSLANLQSGRDVKDLLMLCWTYEKEHRPQFARLLSLLEHLPKKRLARSPSHPVNLSRSAESVF
chain 2: AYINIAEWTPDQVTDWIKGLDESMKGYLYEFSKQEIGGRALLNIRPYELENLGMLRIGHQEIVLEAVENLRNFHYHLKNDNLQFMALHVATAAKNLHRELARNHAESTKIDTRILHDITRTIATLKPLVGSLERTPFRKQEMYREYCGNVLKCGLELATIAHRDRFALQPVPAIRQSAERLENLANFVIQDISDPMVLQPASLNLVTLKKRESELGFNIESSYNGIHRVTDIKYNSPAHNSGKIEDGDEIVQINYQTVVGWQHRTVLEHLREALPDVVLTVKKRPKHTKMFGQIYMQPYRLPSKKRNMAARWAAQMPSPRAAFLTLDTEQLATGGTGSAVPDPSKSLSSEKREVLTKANPVSSASDSDSSCSDIPTPTDPKLAAREIRLYYPKPRALLQRRNTICGCEYLSLKNSDLVVPSWHERKPGIGSPTNCDPGSPSIRDKSISFGYGLEMAARPTTCIGIAGDTSTDKARRMFHEARKLKQLTEDSQREFLVDRYKPGVSKVVRFDAKEDYVMKNEKFICNVENTILETFEPIPFADEGDEDA

Variants of: B1
Test: GST pull-down, immunoblot quantification
Conditions: with Flag-CNK^2–549 [Drosophila]; S2 cells; Flag-CNK2–549, GST-HYP + RRM (Ha-RASV12, Pyo-RAF, Myc-MEK) co-expressed; captured via GST-HYP; anti-V5 (KSR) blot; parent: 1
A bare number is all that is needed in reply.

[in] Quick one: ratio to parent of chain 1 M902D ?
[out] 0.07

[in] Record: chain 1 Y925D
[out] 0.12

[in] Record: chain 1 E926R
[out] 1.07

[in] Record: chain 1 K903D
[out] 0.07
